# protocol-summary: Cytotoxicity against mouse NIH/3T3 cells assessed as cell viability at 250 ug/ml after 72 hrs by MTT assay relative to control
# Type: cell-based, NIH3T3
# test-parameters: read-out: Activity
property-label: viability at 72 h, 250 ug/ml (%)
Express it in %; write the number only.

Example entries begin here.
O=C1Oc2cc([N+](=O)[O-])ccc2N/C1=C\C(=O)c1ccc(C2CCCCC2)cc1 ... 78.3
O=C1Oc2cc([N+](=O)[O-])ccc2N/C1=C\C(=O)C1CC1 ... 76.3
O=C1Oc2ccc([N+](=O)[O-])cc2N/C1=C\C(=O)c1ccc(C2CCCCC2)cc1 ... 79.2
O=C1Oc2cc([N+](=O)[O-])ccc2N/C1=C\C(=O)c1cccc2ccccc12 ... 76.3
O=C1Oc2ccc([N+](=O)[O-])cc2N/C1=C\C(=O)C1CC1 ... 73.7
O=C1Oc2ccc([N+](=O)[O-])cc2N/C1=C\C(=O)c1ccc(-c2ccccc2)cc1 ... 77.1

Consider the record given below.
Quick check: viability at 72 h, 250 ug/ml of `O=C1Oc2ccc(Cl)cc2N/C1=C\C(=O)C1CC1` ? 79.1

* * *

# protocol-summary: Cytotoxicity against mouse NIH/3T3 cells assessed as cell viability at 100 ug/ml after 72 hrs by MTT assay relative to control
# Assay type: cell-based, NIH3T3
# test-parameters: read-out: Activity
property-label: viability at 72 h, 100 ug/ml (%)
Express it in %; write the number only.

Example entries begin here.
O=C1Oc2cc([N+](=O)[O-])ccc2N/C1=C\C(=O)c1ccc(C2CCCCC2)cc1 ... 84.6
O=C1Oc2ccc([N+](=O)[O-])cc2N/C1=C\C(=O)c1ccc(-c2ccccc2)cc1 ... 77.6
O=C1Oc2ccc([N+](=O)[O-])cc2N/C1=C\C(=O)C1CC1 ... 79.5
O=C1Oc2ccc(Cl)cc2N/C1=C\C(=O)C1CC1 ... 86.6

Quick check: viability at 72 h, 100 ug/ml of `O=C1Oc2ccc([N+](=O)[O-])cc2N/C1=C\C(=O)c1ccc(C2CCCCC2)cc1` ? 82.5

Quick check: viability at 72 h, 100 ug/ml of `O=C1Oc2cc([N+](=O)[O-])ccc2N/C1=C\C(=O)c1cccc2ccccc12` ? 83

Quick check: viability at 72 h, 100 ug/ml of `O=C1Oc2cc([N+](=O)[O-])ccc2N/C1=C\C(=O)C1CC1` ? 83.3

* * *

# Test system: Escherichia coli
# protocol-summary: Antibacterial activity against Escherichia coli MTCC 443 at 100 ug/ml incubated for 12 hrs by agar disc diffusion assay
# Format: functional
Active and inactive are the calls of the source. No cut-off for these calls is given here.
property-label: inhibition zone (IZ)

Example entries begin here.
O=C1Oc2ccc(Cl)cc2N/C1=C\C(=O)c1ccc(-c2ccccc2)cc1 ... inactive
O=C1Oc2ccc(Cl)cc2N/C1=C\C(=O)c1ccc(C2CCCCC2)cc1 ... inactive
O=C1Oc2ccc(Cl)cc2N/C1=C\C(=O)c1cccc2ccccc12 ... inactive
Cc1ccc2c(c1)N/C(=C\C(=O)c1cccc3ccccc13)C(=O)O2 ... inactive
O=C1Oc2ccccc2N/C1=C\C(=O)c1cccc2ccccc12 ... inactive

Quick check: inhibition zone (IZ) of `Cc1ccc2c(c1)N/C(=C\C(=O)c1ccc(C3CCCCC3)cc1)C(=O)O2` ? inactive
